The binders listed here are annotated with their absorbance at 490 nm.
tgt: M8
procedure.details: ELISA on coated antigen, column M8
Form rule: numeric answer, no unit written next to it.

Data point: PDL1-31B7 (antibody, V domains shown, Only FR/CDR pieces are tied to the clone) VH: QVQLVESGAEVKKPGSSVKVSCKASGGTFSSYAISWVRQAPGQGLEWMGRIIPILGIANYAQKFQGRVTITADKSTSTAYMELSSLRSEDTAVYYCARASSGYSVGAFDIWGQGTMVTVSS VL: QLVLTQPPSVSAPPGQKVTISCSGSSSNIGNNYVSWYQQLPGTAPKLLIYDNNERPSGIPDRFSASKSGTSATLGISGLQTGDEADYYCGTWDSSLSAGVFGGGTKLTVL ; absorbance at 490 nm = 3

Data point: PDL1-16E12 (antibody, V domains shown, Only FR/CDR pieces are tied to the clone; also called parent antibody) VH: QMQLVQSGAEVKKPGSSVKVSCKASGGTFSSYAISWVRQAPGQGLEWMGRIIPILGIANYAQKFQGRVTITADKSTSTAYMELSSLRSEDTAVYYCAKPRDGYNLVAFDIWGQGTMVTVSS VL: QLVLTQPPSVSGAPGQTVTISCTGSSSNIGAGYDVHWYQQLPGTAPKLLIYGNNNRPSGVPDRFSGSKSGALASLAITGLQAEDGADYHCQSYDNSLSAHAVFGTGTKVTVL ; absorbance at 490 nm = 2.6

Data point: PDL1-31E6 (antibody, V domains shown, Only FR/CDR pieces are tied to the clone) VH: QVQLVQSGAEVKKPGSSVKVSCKASGGTFSSYAISWVRQAPGQGLEWMGGIIPIFGTANYAQKFQGRVTITADESTSTAYMELSSLRSEDTAVYYCARGGRSFGAFDSWGQGALVTVSS VL: DIQMTQSPATLSLSPGERATLSCTASQSISSYLAWYQQKPGQAPRLLIYDSSNRATGIPARFSGSGSGTAFTLTISSLEPEDFAVYFCQQRGQWPLTFGGGTKVDIK ; absorbance at 490 nm = 1.9
